We begin with a simple list: items and their reported clearance.
# EXPERIMENT: in vivo
# CONDITION_SUMMARY: Sprague-Dawley, rat, iv, 0.5 mg/kg
Note: unit mL/min/kg is implicit; provide only the numeric part.

>>> val("NS(=O)(=O)c1ccc(-c2nsc(NC(=O)N(CCC(c3ccc(F)cc3)c3ccc(F)cc3)CCN3CCOCC3)n2)cc1")
26.7

Please find the next molecule below.
Fill in the blank: the reported clearance of "CS(=O)(=O)Nc1ccc(-c2csc(NC(=O)N(CCC(c3ccccc3)c3ccccc3)CCN3CCOCC3)n2)cc1" is ____. 63.3

Data credit: ChEMBL document CHEMBL3091305
